- Tested on: ING2
- EXPERIMENTAL_DETAILS: Histone peptide microarray
- Format: binding, human
- SETTINGS: ING2, GST-tagged; arrays performed twice, n of 4
Where no end group is shown, it is not given here. [ ]: non-standard residue; d: D form. Arg(Me2a) = CN(C)C(=N)NCCC[C@H](N)C(=O)O; pS = N[C@@H](COP(=O)(O)O)C(=O)O
As shown below, each of these substances has a reported Array Heatmap value (peptide array binding signal) value.
Provide a numeric answer; units are not to be included.

As a guide, the following entries are already answered.
What does the data say about its Array Heatmap value (peptide array binding signal)? Entry: H2AR3me2a + K5ac: H2A 1-17 (SG[Arg(Me2a)]GK(Ac)QGGKARAKAKTR; UniProt P0C0S8 2-18, looked up, fragment)
0.5954

What does the data say about its Array Heatmap value (peptide array binding signal)? Entry: H2AX (132-142): H2AX 132-142 (GKKATQASQEY; UniProt P16104 133-143, looked up, fragment)
0.621

What does the data say about its Array Heatmap value (peptide array binding signal)? Entry: H2AS1p + R3me2a + K5ac: H2A 1-17 ([pS]G[Arg(Me2a)]GK(Ac)QGGKARAKAKTR; UniProt P0C0S8 2-18, looked up, fragment)
0.6108

What does the data say about its Array Heatmap value (peptide array binding signal)? Entry: H4K12ac + KQ5,8,16,20: H4 1-23 (SGRGQGGQGLGK(Ac)GGAQRHRQVLR; UniProt P62805 2-24, looked up, variant K5Q K8Q K16Q K20Q)
0.6036

What does the data say about its Array Heatmap value (peptide array binding signal)? Entry: H2A.Z K4ac + K8ac + K12ac (1-19) (N-ac): H2AZ 1-19 (Ac-AGGKAGKDSGKAKTKAVSR; not fully specified (residue 4); UniProt P0C0S5 2-20, looked up, fragment)
0.6161

Further cases:
What does the data say about its Array Heatmap value (peptide array binding signal)? Entry: H2AS1p + K5ac: H2A 1-17 ([pS]GRGK(Ac)QGGKARAKAKTR; UniProt P0C0S8 2-18, looked up, fragment)
0.5878

What does the data say about its Array Heatmap value (peptide array binding signal)? Entry: H2A.Z (1-19): H2AZ 1-19 (AGGKAGKDSGKAKTKAVSR; UniProt P0C0S5 2-20, looked up, fragment)
0.6115

What does the data say about its Array Heatmap value (peptide array binding signal)? Entry: H2A.Z (1-19) (N-ac): H2AZ 1-19 (Ac-AGGKAGKDSGKAKTKAVSR; UniProt P0C0S5 2-20, looked up, fragment)
0.5892

What does the data say about its Array Heatmap value (peptide array binding signal)? Entry: Myc-Tag: 1-10 (ILKKATAYIL; Myc epitope tag; UniProt P01106 410-419, looked up, fragment)
0.5931

What does the data say about its Array Heatmap value (peptide array binding signal)? Entry: H2AX (S139p): H2AX 132-142 (GKKATQA[pS]QEY; UniProt P16104 133-143, looked up, fragment)
0.5973

----------
As shown below, each of these substances has a reported Array Heatmap value (peptide array binding signal) value.
- Test system: KDM5B (1)
- EXPERIMENTAL_DETAILS: Histone peptide microarray
- Assay type: binding, human
- SETTINGS: KDM5B (1), GST-tagged; arrays performed twice, n of 4
Where no end group is shown, it is not given here. [ ]: non-standard residue; d: D form. pS = N[C@@H](COP(=O)(O)O)C(=O)O
Provide a numeric answer; units are not to be included.

As a guide, the following entries are already answered.
What does the data say about its Array Heatmap value (peptide array binding signal)? Entry: H2A.Z K4ac + K8ac + K12ac (1-19) (N-ac): H2AZ 1-19 (Ac-AGGKAGKDSGKAKTKAVSR; not fully specified (residue 4); UniProt P0C0S5 2-20, looked up, fragment)
0.6584

What does the data say about its Array Heatmap value (peptide array binding signal)? Entry: H2A.Z (1-19): H2AZ 1-19 (AGGKAGKDSGKAKTKAVSR; UniProt P0C0S5 2-20, looked up, fragment)
0.6378

# next substance below
What does the data say about its Array Heatmap value (peptide array binding signal)? Entry: H2AS1p + K5ac: H2A 1-17 ([pS]GRGK(Ac)QGGKARAKAKTR; UniProt P0C0S8 2-18, looked up, fragment)
0.5673

----------
- Test system: PHF13
- EXPERIMENTAL_DETAILS: Histone peptide microarray
- Assay type: binding, human
- SETTINGS: PHF13, GST-tagged; arrays performed twice, n of 4
Where no end group is shown, it is not given here. [ ]: non-standard residue; d: D form. Arg(Me2a) = CN(C)C(=N)NCCC[C@H](N)C(=O)O; pS = N[C@@H](COP(=O)(O)O)C(=O)O
ASSAY_READOUT: Array Heatmap value (peptide array binding signal)
Provide a numeric answer; units are not to be included.

As a guide, the following entries are already answered.
API: value(readout=Array Heatmap value (peptide array binding signal), system=PHF13) for record H2A.Z K4ac + K8ac + K12ac (1-19) (N-ac): H2AZ 1-19 (Ac-AGGKAGKDSGKAKTKAVSR; not fully specified (residue 4); UniProt P0C0S5 2-20, looked up, fragment)
0.6948

API: value(readout=Array Heatmap value (peptide array binding signal), system=PHF13) for record H2AS1p + K5ac: H2A 1-17 ([pS]GRGK(Ac)QGGKARAKAKTR; UniProt P0C0S8 2-18, looked up, fragment)
0.4493

API: value(readout=Array Heatmap value (peptide array binding signal), system=PHF13) for record H4K12ac + KQ5,8,16,20: H4 1-23 (SGRGQGGQGLGK(Ac)GGAQRHRQVLR; UniProt P62805 2-24, looked up, variant K5Q K8Q K16Q K20Q)
0.611

Further cases:
API: value(readout=Array Heatmap value (peptide array binding signal), system=PHF13) for record H2A.Z (1-19): H2AZ 1-19 (AGGKAGKDSGKAKTKAVSR; UniProt P0C0S5 2-20, looked up, fragment)
0.7054

API: value(readout=Array Heatmap value (peptide array binding signal), system=PHF13) for record H2A.Z (1-19) (N-ac): H2AZ 1-19 (Ac-AGGKAGKDSGKAKTKAVSR; UniProt P0C0S5 2-20, looked up, fragment)
0.5558

API: value(readout=Array Heatmap value (peptide array binding signal), system=PHF13) for record H2AR3me2a + K5ac: H2A 1-17 (SG[Arg(Me2a)]GK(Ac)QGGKARAKAKTR; UniProt P0C0S8 2-18, looked up, fragment)
0.6011

API: value(readout=Array Heatmap value (peptide array binding signal), system=PHF13) for record Myc-Tag: 1-10 (ILKKATAYIL; Myc epitope tag; UniProt P01106 410-419, looked up, fragment)
0.6119

API: value(readout=Array Heatmap value (peptide array binding signal), system=PHF13) for record H2AX (132-142): H2AX 132-142 (GKKATQASQEY; UniProt P16104 133-143, looked up, fragment)
0.5577

API: value(readout=Array Heatmap value (peptide array binding signal), system=PHF13) for record H2AS1p + R3me2a + K5ac: H2A 1-17 ([pS]G[Arg(Me2a)]GK(Ac)QGGKARAKAKTR; UniProt P0C0S8 2-18, looked up, fragment)
0.6406

API: value(readout=Array Heatmap value (peptide array binding signal), system=PHF13) for record H2AX (S139p): H2AX 132-142 (GKKATQA[pS]QEY; UniProt P16104 133-143, looked up, fragment)
0.6185

----------
- Test system: RAG2
- EXPERIMENTAL_DETAILS: Histone peptide microarray
- Assay type: binding, human
- SETTINGS: RAG2, GST-tagged; arrays performed twice, n of 4
Where no end group is shown, it is not given here. [ ]: non-standard residue; d: D form. Arg(Me2a) = CN(C)C(=N)NCCC[C@H](N)C(=O)O; pS = N[C@@H](COP(=O)(O)O)C(=O)O
As shown below, each of these substances has a reported Array Heatmap value (peptide array binding signal) value.
Provide a numeric answer; units are not to be included.

API: value(readout=Array Heatmap value (peptide array binding signal), system=RAG2) for record H2AX (S139p): H2AX 132-142 (GKKATQA[pS]QEY; UniProt P16104 133-143, looked up, fragment)
0.2586

API: value(readout=Array Heatmap value (peptide array binding signal), system=RAG2) for record H2AX (132-142): H2AX 132-142 (GKKATQASQEY; UniProt P16104 133-143, looked up, fragment)
0.2674

API: value(readout=Array Heatmap value (peptide array binding signal), system=RAG2) for record H4K12ac + KQ5,8,16,20: H4 1-23 (SGRGQGGQGLGK(Ac)GGAQRHRQVLR; UniProt P62805 2-24, looked up, variant K5Q K8Q K16Q K20Q)
0.2487

API: value(readout=Array Heatmap value (peptide array binding signal), system=RAG2) for record H2A.Z (1-19): H2AZ 1-19 (AGGKAGKDSGKAKTKAVSR; UniProt P0C0S5 2-20, looked up, fragment)
0.2847

API: value(readout=Array Heatmap value (peptide array binding signal), system=RAG2) for record H2A.Z (1-19) (N-ac): H2AZ 1-19 (Ac-AGGKAGKDSGKAKTKAVSR; UniProt P0C0S5 2-20, looked up, fragment)
0.2204

# next substance below
API: value(readout=Array Heatmap value (peptide array binding signal), system=RAG2) for record H2AR3me2a + K5ac: H2A 1-17 (SG[Arg(Me2a)]GK(Ac)QGGKARAKAKTR; UniProt P0C0S8 2-18, looked up, fragment)
0.2374
